Entries and their IC50 values follow.
- measuredOn: Prostaglandin E synthase (Homo sapiens, UniProt O14684)
- assayExplanation: Inhibition of mPGES1 in IL1-beta induced human A549 cells assessed as PGE2 production preincubated for 10 mins
- Type: cell-based
- conditionDescription: read-out: IC50
// note: answer is a bare numeric in µM

CCOC(=O)c1c(Nc2cccc(Cl)c2)[nH]c2c1cc(O)c1ccccc12
7.9

// next item, IC50 requested
GET /values?readout=IC50&system=Prostaglandin E synthase (Homo sapiens, UniProt O14684)&item= CCOC(=O)c1c(Cc2ccccc2Cl)[nH]c2c1cc(O)c1ccccc12 20.5

----------
- measuredOn: Prostaglandin E synthase (Homo sapiens) (UniProt O14684)
- assayExplanation: Inhibition of mPGES1 in IL1-beta induced human A549 cell microsomal membrane at 10 uM assessed as enzyme residual activity by PGE2 formation assay relative to untreated control
- Type: microsomes
- conditionDescription: Microsome
experimentalEndpoint: Activity (%)
# value in %; strip the unit string

CCOC(=O)c1c(Cc2cccc(F)c2)[nH]c2c1cc(O)c1ccccc12
5
CCOC(=O)c1c(CCc2cccc(Cl)c2)[nH]c2c1cc(O)c1ccccc12
57

What Activity value was documented for this molecule, CCOC(=O)c1c(Cc2cccc(Cl)c2)[nH]c2ccc(O)cc12 ? 55

Would you mind doing CCOC(=O)c1c(Nc2cccc(Cl)c2)[nH]c2ccc(O)cc12 as well? 83

Would you mind doing CCOC(=O)c1c(Cc2ccc(Cl)cc2)[nH]c2c1cc(O)c1ccccc12 as well? 26

----------
- measuredOn: Prostaglandin E synthase (Homo sapiens)
- Sequence (O14684 whole entry): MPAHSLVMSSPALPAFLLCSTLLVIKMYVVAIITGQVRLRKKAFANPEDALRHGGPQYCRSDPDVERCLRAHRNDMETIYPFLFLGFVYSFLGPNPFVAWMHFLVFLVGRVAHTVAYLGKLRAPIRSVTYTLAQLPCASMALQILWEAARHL
- assayExplanation: Inhibition of mPGES1 in IL1-beta induced human A549 cell microsomal membrane assessed as blockade of conversion of PGH2 to PGE2
- Format: microsomes, Microsome
experimentalEndpoint: pIC50
# log scale: pIC50 equals minus log10 of the concentration in mol/L

Recorded pIC50, per entry:
CCOC(=O)c1c(Cc2ccc(Cl)cc2)[nH]c2c1cc(O)c1ccccc12
5.47
CCOC(=O)c1c(Cc2cccc(Cl)c2)[nH]c2c1cc(O)c1ccc(-c3ccccc3)cc12
5.55
CCOC(=O)c1c(Nc2cccc(Cl)c2)[nH]c2c1cc(O)c1ccccc12
5.80
CCOC(=O)c1c(Cc2ccccc2Cl)[nH]c2c1cc(O)c1ccccc12
7.00
CCOC(=O)c1c(Cc2cccc(F)c2)[nH]c2c1cc(O)c1ccccc12
6.30

Here is another molecule to look at.
Give its pIC50 value. Item: CCOC(=O)c1c(Cc2cccc(Cl)c2)n(-c2ccc(-c3ccccc3)cc2)c2ccc(O)cc12 5.51

----------
- measuredOn: Prostaglandin G/H synthase 1 (Ovis aries)
- assayExplanation: Inhibition of ovine COX1 assessed as residual enzyme activity at 10 uM relative to untreated control
Lab note: anything with Activity at or over 80% counts as 1; the rest go in -1.

As a guide, the following entries are already answered.
CCOC(=O)c1c(Cc2ccccc2Cl)[nH]c2c1cc(O)c1ccccc12
1
CCOC(=O)c1c(Cc2cccc(OC)c2)[nH]c2c1cc(O)c1ccccc12
1

Is the recorded value of Activity equal to or greater than 80% for this molecule? CCOC(=O)c1c(Cc2ccc(Cl)cc2)[nH]c2c1cc(O)c1ccccc12 -1

Then this molecule: CCOC(=O)c1c(Cc2cccc(Cl)c2)[nH]c2c1cc(O)c1ccccc12 -1

Also CCOC(=O)c1c(Cc2cccc(Cl)c2)[nH]c2c1cc(O)c1ccc(-c3ccccc3)cc12 ? -1

Now this one: CC(C)c1ccc2c(c1)c(SC(C)(C)C)c(CC(C)(C)C(=O)O)n2Cc1ccc(Cl)cc1 -1

Source listed as ChEMBL document CHEMBL1153088.
